Assay: solvent given as SMILES
Settings: in ClC(Cl)Cl
endpoint: absorption maximum (nm)

CN(C)c1ccc(/C=C/c2cc[n+](Cc3cc(C[n+]4ccc(/C=C/c5ccc(N(C)C)cc5)cc4)cc(C[n+]4ccc(/C=C/c5ccc(N(C)C)cc5)cc4)c3)cc2)cc1; 500
CN(C)c1ccc(C#Cc2ccc(-c3nc(C#N)c(C#N)n3C)cc2)cc1; 369
C(#Cc1ccccc1)C(C#Cc1ccccc1)=Cc1ccccc1; 340
c1ccc(-c2nc(-c3ccccn3)sc2N(c2ccccc2)c2ccccc2)cc1; 388
CCc1ccc(-c2nc(-c3ccc(-n4c5ccccc5c5ccccc54)cc3)cc(-c3ccc(-n4c5ccccc5c5ccccc54)cc3)n2)cc1; 344

###

Experiment: solvent given as SMILES
Conditions: in CCCCCCO
Form field: absorption maximum (one value per entry).
Numeric only. Scale: nm

COC(=O)C(Cc1ccc2oc(-c3ccc(-n4c5ccccc5c5ccccc54)cc3)nc2c1)NC(=O)OC(C)(C)C (centres undefined); 342.59
Nc1ccc2c(C(F)(F)F)cc(=O)oc2c1; 384
CN(C)c1ccc(C#Cc2ccc3ccc4ccc(C#Cc5ccc(N(C)C)cc5)c5ccc2c3c45)cc1; 429

Now for the molecule whose absorption maximum we want.
Quick note, absorption maximum for Oc1ccccc1/N=C/c1ccccc1Oc1ccccc1 landed at 355

###

Test: solvent given as SMILES
Settings: in C1CCOC1
endpoint: absorption maximum (nm)

Please review the entries below; each comes with its answer.
CCCCn1c2ccc(-c3cccs3)cc2c2c1c1c3ccc(-c4cccs4)cc3n(CCCC)c1c1c3ccc(-c4cccs4)cc3n(CCCC)c21; 337
COc1ccc(N(c2ccc(OC)cc2)c2ccc3ccc4c(B(c5c(C)cc(C)cc5C)c5c(C)cc(C)cc5C)ccc5ccc2c3c54)cc1; 465
c1cc2ccc1-c1ccc(cc1)-c1ccc([se]1)-c1ccc(cc1)-c1ccc(cc1)-c1ccc([se]1)-c1ccc(cc1)-c1ccc(cc1)-c1ccc-2[se]1; 365
FC(F)(F)C(F)(F)C(F)(F)C1=NC2=C(c3ccccc3)C=C3c4cc(-c5ccccc5)c5nc(C(F)(F)C(F)(F)C(F)(F)F)nc6c(-c7ccccc7)cc(c4c56)=C4C=C(c5ccccc5)C(=N1)C2C34 (centres undefined); 500
CC(C)(C)c1ccc2c3c(c4ccc(C(C)(C)C)cc4c2c1)=[N+]1C(=C(c2ccccc2)c2cc4c5ccc(C(C)(C)C)cc5c5cc(C(C)(C)C)ccc5c4n2[B-]1(F)F)C=3; 689
CCN(CC)c1ccc(-c2nc3c4ccccc4n(C)c3nc2-c2ccc([B-](F)(c3c(C)cc(C)cc3C)c3c(C)cc(C)cc3C)cc2)cc1; 411.11
CC(C)(C)c1cc2c3c(c1)-c1cccc4c1N(B3N1c3ccccc3Sc3cccc-2c31)c1ccccc1S4; 381
c1cc2ccc1-c1ccc(cc1)-c1ccc(s1)-c1ccc(cc1)-c1ccc(cc1)-c1ccc(s1)-c1ccc(cc1)-c1ccc(cc1)-c1ccc(s1)-c1ccc(cc1)-c1ccc(cc1)-c1ccc-2s1; 354
Cc1ccc(C(=O)/C=C/c2ccc(N(C)C)cc2)cc1; 404
COc1cccc(OC)c1C1=C2C(C)=CC(C)=[N+]2[B-](F)(F)n2c(C)cc(C)c21; 506

[A] N#Cc1c(N2CCCCC2)cc(-c2cccc3ccccc23)c2c1C(=O)c1ccccc1-2
[B] CCC(CC)COC1=CC2=C3c4cc(OCC(CC)CC)c(-c5ccccc5)n4[B-](F)(F)[n+]4nnn(c43)[B-](F)(F)[N+]2=C1c1ccccc1
Q: # return whichever of A and B has the smaller absorption maximum Pick one and reply with its label.
Result: A
(A: 344 nm, B: 691 nm)

###

Assay: solvent given as SMILES
Conditions: in CO
endpoint: absorption maximum (nm)

CC1=C(c2cccs2)C(C)=[N+]2C1=C(c1ccc(OS(=O)(=O)c3ccc([N+](=O)[O-])cc3[N+](=O)[O-])cc1)c1c(C)c(-c3cccs3)c(C)n1[B-]2(F)F; 526
COc1ccc(-c2nc(N)nc(C#N)c2C#N)cc1OC; 346
COc1ccc(-c2nc(-c3cccc(C#N)c3)[nH]c2-c2ccc(OC)cc2)cc1; 327
CN(C)c1ccc(/C=C/C=C/c2ccncc2)cc1; 394
CN(C)c1ccc(/C=C/c2nc3ccccc3s2)cc1; 397
CCn1c(=O)nc2n(C)c3cc(C)ccc3nc-2c1=O; 446
CN1CCN(CCCN2c3ccccc3Sc3ccc(Cl)cc32)CC1; 313
COc1ccc(C(=O)/C=C2\C(=O)Nc3ccccc32)c(OC)c1; 343
CCCCc1ccc2ccc3c(CCCC)cc(CCCC)c4ccc1c2c34; 351
COc1ccc(-c2[nH]c(=O)n3c2-c2ccccc2C3=O)c(OC)c1; 401

###

Assay: solvent given as SMILES
Conditions: in ClCCl
endpoint: absorption maximum (nm)

[A] CC(=O)c1c(N[C@@H](CS)C(=O)O)c2ccc(N(C)C)cc2oc1=O
[B] COc1ccc2cc(-c3cc(-c4ccccc4)c4n3[B-](F)(F)[N+]3=C5C=NC=CN5[B-](F)(F)[N+]3=C4)ccc2c1
Q: # return whichever of A and B has the smaller absorption maximum Pick one and reply with its label.
Result: A
(A: 372 nm, B: 536 nm)

###

Assay: solvent given as SMILES
Details: in OCCO
endpoint: absorption maximum (nm)

CN(C)c1c2ccccc2cc2ccccc12; 388
COC(=O)C(Cc1ccc2oc(-c3ccc(-n4c5ccccc5c5ccccc54)cc3)nc2c1)NC(=O)OC(C)(C)C (centres undefined); 343.21
Oc1ccccc1/N=C/c1ccccc1Oc1ccccc1; 349
COC(=O)c1c2ccccc2nc2ccccc12; 361

###

Test: solvent given as SMILES
Details: in CC(C)O
endpoint: absorption maximum (nm)

CN(C)c1ccc2nc(-c3ccc(C(=O)O)cc3)sc2c1; 374
O=C1Nc2ccccc2/C1=C/C(=O)c1ccc(O)cc1; 338
COc1ccc(C(=O)/C=C2\C(=O)Nc3ccccc32)c(OC)c1; 338
Oc1ccc(/N=C/c2ccccc2Oc2ccccc2)cc1; 344
CN(C)c1ccc(/C=C/c2nc3ccccc3s2)cc1; 394
CC1(C)Cc2c(c3ccccc3c3nc4c(nc23)c2c(c3ccccc34)OC(C)(C)C2)O1; 452.08
Cc1ccc(-c2cc(-c3ccccc3)c3c(N)nc(N4CCCC4)c(C#N)c3n2)cc1; 414
Cc1ccc(-n2c(-c3ccc(C(F)(F)F)cc3)nc(-c3ccccc3O)c2-c2ccccc2O)cc1; 309
Cc1ccc(-c2cc(-c3ccccc3Cl)c3c(N)nc(N4CCCC4)c(C#N)c3n2)cc1; 414
Cc1ccc(C2CC(c3ccc(O)cc3)=NN2c2ccc(S(N)(=O)=O)cc2)cc1 (stereo not given); 358

###

Form field: absorption maximum (one value per entry).
Test: solvent given as SMILES
Settings: in Cc1ccccc1
Numeric only. Scale: nm

CC1(C)c2ccccc2N(c2ccc3c(ccc4nc5ccc6cc(N7c8ccccc8C(C)(C)c8ccccc87)ccc6c5nc43)c2)c2ccccc21; 416
CCCC1=Cc2nc1ccc1[nH]c(cc1CCO)c1nc(ccc3[nH]c2cc3CCC)C(CCO)=C1; 638
C[Si]1(C)C2=C(c3ccc(N(c4ccccc4)c4ccccc4)cc31)P(=O)(c1ccccc1)c1ccccc12 (configuration not stated); 446
CCCCCCc1ccc(-n2c3[n+](c4c5ccccc5c5ccccc5c42)[B-](C)(C)c2cc(N(c4ccccc4)c4ccccc4)ccc2-3)cc1; 397
Oc1ccccc1/N=C/c1ccccc1Oc1ccccc1; 381
O=Cc1nc2ccc(C#Cc3ccc(N(c4ccccc4)c4ccccc4)cc3)cc2s1; 412
Cc1ccc(-c2c3ccc([nH]3)c3nc(c(-c4ccc(C#N)cc4)c4ccc([nH]4)c4ccc([nH]4)c(-c4ccc(C)cc4)c4ccc2o4)C=C3)cc1; 452
CN(C)c1ccc(C2=Nc3scc(-c4ccc([N+](=O)[O-])cc4)[n+]3[B-](F)(F)O2)cc1; 415
CC1=C(c2cccs2)C(C)=[N+]2C1=C(c1ccc(OS(=O)(=O)c3ccc([N+](=O)[O-])cc3[N+](=O)[O-])cc1)c1c(C)c(-c3cccs3)c(C)n1[B-]2(F)F; 535
Cc1csc2[n+]1[B-](F)(F)n1c(c3cccc4cccc1c43)=N2; 479

Quick note, absorption maximum for COc1ccc(/C=C/C2=CC(/C=C/c3ccc(OC)cc3)=[O+][B-](OC(C)=O)(OC(C)=O)O2)cc1 landed at 456

Quick note, absorption maximum for Fc1c(F)c(-n2c3ccccc3c3ccccc32)c(F)c(F)c1/C=C/C(=C(c1ccccc1)c1ccccc1)c1ccccc1 landed at 360

Quick note, absorption maximum for CCN(CC)c1ccc2cc(/C=C/C(=O)/C=C(O)/C=C/c3cc4ccc(N(CC)CC)cc4oc3=O)c(=O)oc2c1 landed at 518

Quick note, absorption maximum for CC(=O)N(Cc1ccccn1)c1c2ccccc2c2c3c(cccc13)C(=O)N(Cc1ccccn1)C2=O landed at 437

Quick note, absorption maximum for CN1CCN(c2ccc3c4c(cccc24)C(=O)c2ccccc2-3)CC1 landed at 443.8

Quick note, absorption maximum for Nc1ccc(-c2ccc(N)cc2)cc1 landed at 295

Quick note, absorption maximum for CC(C)(C(=O)c1ccc(N2c3ccccc3Oc3ccccc32)cc1)C(=O)c1ccc(N2c3ccccc3Oc3ccccc32)cc1 landed at 416
